Values were extracted from patent EP3478687B1.

target: Recombinant purified human BTK (Homo sapiens, UniProt Q06187); assay: BTK kinase inhibitory activity, ADP-Glo kinase assay (Promega V9071); details: ATP 10 uM, 8 ng BTK per reaction, 1 hour 30 °C, chemiluminescence
Sequence (Q06187 whole entry): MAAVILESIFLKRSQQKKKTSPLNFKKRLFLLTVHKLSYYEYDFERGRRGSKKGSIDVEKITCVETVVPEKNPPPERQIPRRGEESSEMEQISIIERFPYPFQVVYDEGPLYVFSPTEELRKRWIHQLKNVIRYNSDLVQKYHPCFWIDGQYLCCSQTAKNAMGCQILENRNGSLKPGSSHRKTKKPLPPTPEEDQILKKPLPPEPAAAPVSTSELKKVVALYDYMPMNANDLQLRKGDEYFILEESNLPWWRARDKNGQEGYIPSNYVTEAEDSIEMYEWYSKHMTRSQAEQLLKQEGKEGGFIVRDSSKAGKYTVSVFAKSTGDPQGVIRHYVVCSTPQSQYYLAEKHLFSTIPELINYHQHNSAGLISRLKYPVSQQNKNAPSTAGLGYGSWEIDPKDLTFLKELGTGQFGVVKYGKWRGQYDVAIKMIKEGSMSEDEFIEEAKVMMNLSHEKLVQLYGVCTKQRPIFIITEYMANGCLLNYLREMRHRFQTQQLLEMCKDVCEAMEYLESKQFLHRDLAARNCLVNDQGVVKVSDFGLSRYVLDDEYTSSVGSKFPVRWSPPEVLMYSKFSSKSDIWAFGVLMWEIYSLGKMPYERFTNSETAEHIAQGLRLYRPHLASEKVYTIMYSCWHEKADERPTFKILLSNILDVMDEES
pIC50: −log10 of the molar value.
recorded_endpoint: pIC50

{"columns": ["molecule", "system_tested", "reported_measurement"],
 "data": [
  ["C=CC(=O)N1CCC[C@@H](Nc2nc(Nc3cccc(NC(=O)N4CCCC4)c3)nc3[nH]ccc23)C1 [Example 2]", "Recombinant purified human BTK (Homo sapiens, UniProt Q06187)", 7.57],
  ["C=CC(=O)N1CCC[C@@H](Nc2nc(Nc3ccc(N4CCOCC4)c(F)c3)nc3[nH]cc(Cl)c23)C1 [Example 98]", "Recombinant purified human BTK (Homo sapiens, UniProt Q06187)", 7.85],
  ["C=CC(=O)N1CCC[C@@H](Nc2nc(Nc3ccc4ncsc4c3)nc3[nH]cc(C)c23)C1 [Example 81]", "Recombinant purified human BTK (Homo sapiens, UniProt Q06187)", 7.59],
  ["CCn1cc(Nc2nc(O[C@@H]3CCCN(C(=O)/C(C#N)=C/C(C)C)C3)c3c(C#N)c[nH]c3n2)cn1 [Example 156]", "Recombinant purified human BTK (Homo sapiens, UniProt Q06187)", 8.96]
]}

P. C=CC(=O)N1CCC[C@@H](Nc2nc(Nc3cnn(C4CCOCC4)c3)nc3[nH]ncc23)C1 [Example 71]
Q. C=CC(=O)N1CCC[C@@H](Nc2nc(Nc3ccc(N4CCN(C)CC4)cc3)nc3[nH]nc(Cl)c23)C1 [Example 42]
R. C=CC(=O)N1CC[C@@H](C)[C@@H](Nc2nc(Nc3cnn(CC)c3)nc3[nH]cc(F)c23)C1 [Example 84]
Request: hey, can you rank those molecules up there by pIC50? biggest number first please Give the order by naming the labels one after another as requested.
Result: P, Q, R
